# credit: PubChem BioAssay (NCATS)

- Test system: OV90
- assayOverview: Primary qHTS to identify gynecologic anti-cancer compounds using libraries of approved drugs and bioactive compounds (AID 1345084); also: nearly all actives have a fitted effect of over 55% in size
- recordedConditions: Gynecologic cancer cell panel viability, ATPlite luminescence, 48 h; series mostly up to 57.5 µM
Results filed as inconclusive are left out. Calls of active or inactive are those of the source. Calls follow the shape of the dose curve; as a rule, active = well fitted cell-killing curve with a large enough effect; inconclusive = small, poorly fitted or top-dose-only effect, or effect the other way; inactive = flat fitted curve, though single readings scatter.
Use one of these outcomes when replying: active, inactive

[Q] # lookup: test call for O=C(CCOCCOCCOCCOCCC(=O)Nc1c(I)cc(I)c(C(=O)O)c1I)Nc1c(I)cc(I)c(C(=O)O)c1I
[A] inactive

Others:
[Q] # lookup: test call for CCN(CC)CCOc1ccc(/C(=C(\Cl)c2ccccc2)c2ccccc2)cc1
[A] active

[Q] # lookup: test call for CN1C(CSCC(F)(F)F)Nc2cc(Cl)c(S(N)(=O)=O)cc2S1(=O)=O (stereo not given)
[A] inactive

----------
- assayOverview: qHTS of pediatric cancer cell lines to identify multiple opportunities for drug repurposing: Primary screen for SJ-GBM2 cells (AID 1347091);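 also: plate controls were DMSO neutral control for no effect and bortezomib for full effect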
- recordedConditions: SJ-GBM2 viability, CellTiter-Glo luminescence, 48 h; series mostly up to 46 µM
Records with an inconclusive call do not appear. The source made the active and inactive calls. Calls follow the shape of the dose curve; as a rule, active = well fitted cell-killing curve with a large enough effect; inconclusive = small, poorly fitted or top-dose-only effect; inactive = no such curve, though single readings can be large or run the other way.
Use one of these outcomes when replying: yes = active, no = inactive

Examples from the recorded data:
[Q] # lookup: test call for O=C1CC2(CCCC2)CC(=O)N1
[A] no

[Q] # lookup: test call for COC(=O)c1ccc(NC(C)=O)cc1OC
[A] no

[Q] # lookup: test call for CC(C)C[C@@H]1[C@H](c2ccccc2)OC(=O)N1CCCN1CCCCCC1
[A] no

[Q] # lookup: test call for NCC(=O)O
[A] no

[Q] # lookup: test call for Cc1ccc(C(=O)Oc2ccc(C(O)CNC(C)(C)C)cc2OC(=O)c2ccc(C)cc2)cc1 (centres undefined)
[A] no

Others:
[Q] # lookup: test call for CC(NC(CCc1ccccc1)C(=O)O)C(=O)N1C(=O)N(C)CC1C(=O)O (centres undefined)
[A] no

[Q] # lookup: test call for CC(C)(C)CC(=O)OCC(=O)[C@@]1(O)CC[C@H]2[C@@H]3CCC4=CC(=O)C=C[C@]4(C)[C@H]3[C@@H](O)C[C@@]21C
[A] no

----------
- assayOverview: Primary qHTS for inhibitors of nuclear receptor binding SET domain protein 2 (NSD2) in an RCH-ACV wild type WT cells (2C) (AID 1645877); also: nearly all actives have a fitted effect of over 70% in size
- recordedConditions: RCH-ACV (leukaemia line) NSD2 WT (2C) viability, CellTiter-Glo, 72 h; series mostly up to 44.9 µM
Inconclusive results are not listed. Calls of active or inactive are those of the source. Calls come from the whole dose curve; as a rule, active = well fitted inhibition curve with a large enough effect; inconclusive = small, poorly fitted or top-dose-only effect; inactive = no such curve, though single readings can be large or run the other way.
Use one of these outcomes when replying: 1 (yes) (active), 0 (no) (inactive)

[Q] # lookup: test call for CC(NN)c1ccccc1 (stereo not drawn)
[A] 0 (no)

[Q] # lookup: test call for O=C1CC2(CCCC2)CC(=O)N1
[A] 0 (no)

[Q] # lookup: test call for Cc1c(N)cccc1C(F)(F)F
[A] 0 (no)

[Q] # lookup: test call for CN(C)CCN1CCN(c2cccc(Cl)c2)C1=O
[A] 0 (no)

[Q] # lookup: test call for CCCCCCCCCCCCCCCC[n+]1ccccc1
[A] 1 (yes)

[Q] # lookup: test call for Cc1[nH]cnc1-c1ccc(Cl)cc1
[A] 0 (no)

[Q] # lookup: test call for Nc1ccc(O)cc1
[A] 0 (no)

Moving on to the next compound.
[Q] # lookup: test call for C[C@]12CCC(=O)C=C1CC[C@@H]1[C@@H]2[C@@H](O)C[C@@]2(C)[C@H]1CC[C@]2(O)C(=O)COC(=O)CCC(=O)O
[A] 1 (yes)

----------
- assayOverview: A High-Content qHTS Against Drug Library for the Identification of Small Molecules that Inhibit DYT1 Early Onset Primary Dystonia-Associated Cell Pathology (AID 1645839)
- recordedConditions: HEK293 Flp-In EGFP-delE TorsinA, punctate imaging, 48 h; series mostly up to 46.1 µM
- From the text: Nicole Calakos M.D., Ph.D. Duke University School of Medicine, Durham, NC […] The bioassay described herein is a high-content image screen with two readouts. The "%pathology" readout is the primary qHTS data channel, while the "cellcount" is the counterscreen qHTS channel. Desired active compounds are those that show inhibition in %pathology channel but no activity or minimal toxicity in cellcount readout. […]
Records with an inconclusive call do not appear. Active and inactive are the calls of the source. Calls follow the shape of the full dose curve.
Use one of these outcomes when replying: active, inactive

[Q] # lookup: test call for CCCCCCCCCCCCCC[N+](C)(C)C
[A] active

[Q] # lookup: test call for NS(=O)(=O)c1cc2c(cc1Cl)CN(C1CCCCC1)C2=O
[A] inactive

[Q] # lookup: test call for CC(C)(C)C(=O)OCOC(=O)C1N2C(=O)CC2S(=O)(=O)C1(C)C (stereo not given)
[A] inactive

[Q] # lookup: test call for CCOC(=O)c1cc(=O)c2c(OCC(COc3cccc4oc(C(=O)OCC)cc(=O)c34)OC(=O)[C@@H](N)CCCCN)cccc2o1
[A] inactive

[Q] # lookup: test call for CCC(=O)O[C@H]1[C@H](O[C@@H]2[C@@H](C)[C@H](O[C@H]3C[C@@](C)(OC)[C@@H](O)[C@H](C)O3)[C@@H](C)C(=O)O[C@H](CC)[C@@](C)(O)[C@H](O)[C@@H](C)C(=O)[C@H](C)C[C@@]2(C)O)O[C@H](C)C[C@@H]1N(C)C
[A] inactive

[Q] # lookup: test call for C/C(=N/NC(=O)c1ccncc1)C(=O)O
[A] inactive

[Q] # lookup: test call for CCN1CCN(C(=O)N[C@@H](C(=O)N[C@@H]2C(=O)N3[C@@H]2SC(C)(C)[C@H]3C(=O)O)c2ccccc2)C(=O)C1=O
[A] inactive

[Q] # lookup: test call for CC(=O)Nc1ccc(S(=O)(=O)Nc2cc(C)on2)cc1
[A] inactive

[Q] # lookup: test call for CCCC(CCC)(C(=O)OCC)C(=O)OCC
[A] inactive

[Q] # lookup: test call for CC(C)CCCC(C)NCCC(C)C (stereo not given)
[A] inactive

[Q] # lookup: test call for C[C@@H]1C[C@H]2[C@@H]3CCC4=CC(=O)C=C[C@]4(C)[C@@]3(F)[C@@H](O)C[C@]2(C)[C@@]1(O)C(=O)COC(=O)c1ccncc1
[A] inactive

[Q] # lookup: test call for Cc1cccc(N(C)C(=S)Oc2ccc3c(c2)C2CCC3C2)c1 (stereo not given)
[A] inactive

[Q] # lookup: test call for CCCC(=O)Nc1ccc(O)c(C(C)=O)c1
[A] inactive

[Q] # lookup: test call for CCN(CC)CC(=O)OCC(=O)[C@@]1(O)CC[C@H]2[C@@H]3CCC4=CC(=O)CC[C@]4(C)[C@H]3[C@@H](O)C[C@@]21C
[A] inactive

[Q] # lookup: test call for CCCC(=O)O[C@]1(C(=O)CCl)[C@@H](C)C[C@H]2[C@@H]3CCC4=CC(=O)C=C[C@]4(C)[C@@]3(F)C(=O)C[C@@]21C
[A] inactive

----------
- assayOverview: qHTS of pediatric cancer cell lines to identify multiple opportunities for drug repurposing: Primary screen for RD cells (AID 1347104); also: nearly all actives have a fitted effect of over 55% in size
- recordedConditions: RD rhabdomyosarcoma viability, CellTiter-Glo luminescence, 48 h; series mostly up to 46 µM
Inconclusive results are not listed. Activity calls are given as the source filed them. Calls follow the shape of the dose curve; as a rule, active = well fitted cell-killing curve with a large enough effect; inconclusive = small, poorly fitted or top-dose-only effect; inactive = flat fitted curve, though single readings scatter.
Use one of these outcomes when replying: T (active), F (inactive)

Examples from the recorded data:
[Q] # lookup: test call for O=C(O)CCCC[C@@H]1SC[C@@H]2NC(=O)N[C@@H]21
[A] F

[Q] # lookup: test call for O=C1Nc2ccccc2C1(c1ccc(O)cc1)c1ccc(O)cc1
[A] F

[Q] # lookup: test call for CCCCCC1Nc2cc(C(F)(F)F)c(S(N)(=O)=O)cc2S(=O)(=O)N1 (stereo not drawn)
[A] F

[Q] # lookup: test call for O=C(O)c1ccccc1Nc1cc(Cl)ccc1C(=O)O
[A] F

[Q] # lookup: test call for CC(C)C(=O)OCc1cccc(OC(=O)[C@@H]2N3C(=O)[C@@H](NC(=O)Cc4ccccc4)[C@H]3SC2(C)C)c1
[A] F

Others:
[Q] # lookup: test call for CC(=O)Nc1c(I)c(NC(C)=O)c(I)c(C(=O)O)c1I
[A] F

[Q] # lookup: test call for O=C(O)Cc1ccccc1Oc1ccc(Cl)cc1Cl
[A] F

[Q] # lookup: test call for OC(CCCN1CCCCC1)(c1ccccc1)c1ccccc1
[A] F

[Q] # lookup: test call for Cc1nc(N)nc(N)c1-c1ccc(Cl)c(Cl)c1
[A] T

----------
- Test system: CRL-7250
- assayOverview: Cytotoxic Profiling of Annotated Libraries Using Quantitative High-Throughput Screening (AID 1296008); also: % is scaled to controls: 0 for no effect and ±100 for the full control effect; nearly all actives have a fitted effect of over 60% in size
- recordedConditions: Five cell lines viability, CellTiter-Glo ATP luminescence, 48-72 h; hits give low values
- Protocol: Cell-based phenotypic screening is a commonly used approach to discover biological pathways, novel drug targets, chemical probes and high-quality hit-to-lead molecules. […] A pintool (Kalypsys) was used to transfer 23 nL of compound solution to the 1536-well assay plates. […] Plates were left at room temperature for 10 min before imaging the ATP-coupled luminescence using a ViewLux microplate imager (PerkinElmer, Waltham, MA).
Inconclusive results are not listed.
measuredProperty: max response (%)
The reply should contain only the number, in %.

# max response measured on CRL-7250 for item O=C(CCOCCOCCOCCOCCC(=O)Nc1c(I)cc(I)c(C(=O)O)c1I)Nc1c(I)cc(I)c(C(=O)O)c1I = -8.36

Others:
# max response measured on CRL-7250 for item COC(=O)/C=C(/C)N = -6.42

# max response measured on CRL-7250 for item CCCC(=O)O[C@]1(C(=O)COC(=O)CC)CC[C@H]2[C@@H]3CCC4=CC(=O)CC[C@]4(C)[C@H]3[C@@H](O)C[C@@]21C = 1.61

# max response measured on CRL-7250 for item Brc1ccc([C@H]2CN3CCSC3=N2)cc1 = -3.15

# max response measured on CRL-7250 for item COc1cc(S(N)(=O)=O)cc(C(=O)O)c1OC = 3.62

# max response measured on CRL-7250 for item O=C1CCCc2c(O)cccc21 = -3.71

# max response measured on CRL-7250 for item Cc1ccc(C(=O)C(=O)O)cc1C = -7.54
